# System: Hs-766T (Pancreatic Carcinoma)
# PROCEDURE DETAILS: Bliss excess, mean over the matrix (fraction); higher = more synergy
REPORTED ENDPOINT: Bliss excess

Worked examples follow.
MOLECULE: CN(CCO)CC[C@H](CSc1ccccc1)Nc1ccc(S(=O)(=O)NC(=O)c2ccc(N3CCC([C@@H](O)c4ccccc4-c4ccc(Cl)cc4)CC3)cc2)cc1S(=O)(=O)C(F)(F)F [AZD4320] + CN(C)CCCOc1ccc(-c2ccc3ncc4c(c3c2)n(C2CCOCC2)c(=O)n4C)cn1 [AZD0156] (first compound max 1 µM, 7x7, partner max 1 µM)
Bliss excess: -0.087
--
MOLECULE: NC1(C(=O)N[C@@H](CCO)c2ccc(Cl)cc2)CCN(c2ncnc3[nH]ccc23)CC1 [Capivasertib] + COc1nnc2ccc(N3CCC(c4ccc(OCCN5CCN(C)C(=O)[C@H]5C)cc4)CC3)nn12 [AZD5153] (first compound max 10 µM, 7x7, partner max 1 µM)
Bliss excess: 0.0126

So, CN(CCO)CC[C@H](CSc1ccccc1)Nc1ccc(S(=O)(=O)NC(=O)c2ccc(N3CCC([C@@H](O)c4ccccc4-c4ccc(Cl)cc4)CC3)cc2)cc1S(=O)(=O)C(F)(F)F [AZD4320] + C=CCn1c(=O)c2cnc(Nc3ccc(N4CCN(C)CC4)cc3)nc2n1-c1cccc(C(C)(C)O)n1 [AZD1775] (first compound max 1 µM, partner max 1 µM) ? Its Bliss excess was -0.0431

====

# System: NUGC-3 (Gastric Carcinoma)
# PROCEDURE DETAILS: Bliss excess, mean over the matrix (fraction); higher = more synergy
REPORTED ENDPOINT: Bliss excess
Give only the figure.

COMPOUND: COc1cccc(OCCCN)c1-c1cc(Nc2cnc(C#N)cn2)n[nH]1 [Prexasertib] + C=CCn1c(=O)c2cnc(Nc3ccc(N4CCN(C)CC4)cc3)nc2n1-c1cccc(C(C)(C)O)n1 [AZD1775] (first compound max 1 µM, partner max 1 µM)
Bliss excess: 0.0979

Now examine the next entry.
Item: COc1nnc2ccc(N3CCC(c4ccc(OCCN5CCN(C)C(=O)[C@H]5C)cc4)CC3)nn12 [AZD5153] + Cn1cnc2c(F)c(Nc3ccc(Br)cc3Cl)c(C(=O)NOCCO)cc21 [Selumetinib] (first compound max 1 µM, 7x7, partner max 10 µM) | System: NUGC-3 (Gastric Carcinoma) | Bliss excess: -0.0071

====

# Test system: NUGC-3 (Gastric Carcinoma)
# PROCEDURE DETAILS: combination Emax (second highest fraction inhibited in the dose matrix, 72 h); higher = more inhibition; extreme values may be limits of the assay
Overview of recorded combination Emax for various compounds
Give only the figure.

Worked examples follow.
COMPOUND: Cc1cc2ncnn2cc1Nc1ncc2c(n1)n(C1CCOCC1)c(=O)n2C [AZD7648] + CCN(CCO)CCCOc1ccc2c(Nc3cc(CC(=O)Nc4cccc(F)c4)[nH]n3)ncnc2c1 [AZD2811] (first compound max 10 µM, 7x7, partner max 1 µM)
REPORTED ENDPOINT: combination Emax
MEASURED: 0.418
//
COMPOUND: CC(=O)c1c(C)c2cnc(Nc3ccc(N4CCNCC4)cn3)nc2n(C2CCCC2)c1=O [Palbociclib] + CN(CC[C@H](CSC1=CC=CC=C1)NC2=C(C=C(C=C2)S(=O)(=O)NC(=O)C3=CC=C(C=C3)N4CCC(CC4)[C@H](C5=CC=CC=C5C6=CC=C(C=C6)Cl)O)S(=O)(=O)C(F)(F)F)CCO [AZD4320] (first compound max 10 µM, 7x7, partner max 1 µM)
REPORTED ENDPOINT: combination Emax
MEASURED: 0.714
//
COMPOUND: NC1(C(=O)N[C@@H](CCO)c2ccc(Cl)cc2)CCN(c2ncnc3[nH]ccc23)CC1 [Capivasertib] + CC(C)n1c(=O)n(C)c2cnc3cc(F)c(-c4ccc(OCCCN5CCCCC5)nc4)cc3c21 [AZD1390] (first compound max 10 µM, 7x7, partner max 0.3 µM)
REPORTED ENDPOINT: combination Emax
MEASURED: 0.339
//
COMPOUND: CC1(C)CCC(CN2CCN(c3ccc(C(=O)NS(=O)(=O)c4ccc(NCC5CCOCC5)c([N+](=O)[O-])c4)c(Oc4cnc5[nH]ccc5c4)c3)CC2)=C(c2ccc(Cl)cc2)C1 [Venetoclax] + C1CN(CCC1(C(=O)N[C@@H](CCO)C2=CC=C(C=C2)Cl)N)C3=NC=NC4=C3C=CN4 [Capivasertib] (first compound max 1 µM, 7x7, partner max 3 µM)
REPORTED ENDPOINT: combination Emax
MEASURED: 0.227
//
COMPOUND: C[C@@H]1COCCN1c1cc(C2([S@](C)(=N)=O)CC2)nc(-c2ccnc3[nH]ccc23)n1 [AZD6738] + O=C(c1cc(Cc2n[nH]c(=O)c3ccccc23)ccc1F)N1CCN(C(=O)C2CC2)CC1 [Olaparib] (first compound max 10 µM, 7x7, partner max 10 µM)
REPORTED ENDPOINT: combination Emax
MEASURED: 0.778

So, Cc1c2c(nn1C)CSCc1cc(n(C)n1)CSc1cc(c3ccccc3c1)OCCCc1c(C(=O)O)n(C)c3c-2c(Cl)ccc13 [AZD5991] + CCN(CCO)CCCOc1ccc2c(Nc3cc(CC(=O)Nc4cccc(F)c4)[nH]n3)ncnc2c1 [AZD2811] (first compound max 1 µM, 7x7, partner max 1 µM) ? Its combination Emax was 0.391

So, CCN(CCO)CCCOc1ccc2c(Nc3cc(CC(=O)Nc4cccc(F)c4)[nH]n3)ncnc2c1 [AZD2811] + C=CCn1c(=O)c2cnc(Nc3ccc(N4CCN(C)CC4)cc3)nc2n1-c1cccc(C(C)(C)O)n1 [AZD1775] (first compound max 1 µM, partner max 1 µM) ? Its combination Emax was 0.539

====

# System: MLMA (Other Blood Carcinomas)
# PROCEDURE DETAILS: Bliss excess, mean over the matrix (fraction); higher = more synergy
REPORTED ENDPOINT: Bliss excess
Give only the figure.

COMPOUND: CN(CCO)CC[C@H](CSc1ccccc1)Nc1ccc(S(=O)(=O)NC(=O)c2ccc(N3CCC([C@@H](O)c4ccccc4-c4ccc(Cl)cc4)CC3)cc2)cc1S(=O)(=O)C(F)(F)F [AZD4320] + C1CN(CCC1(C(=O)N[C@@H](CCO)C2=CC=C(C=C2)Cl)N)C3=NC=NC4=C3C=CN4 [Capivasertib] (first compound max 1 µM, 7x7, partner max 3 µM)
Bliss excess: 0.0534
--
COMPOUND: CCc1c2c(nc3ccc(O)cc13)-c1cc3c(c(=O)n1C2)COC(=O)[C@]3(O)CC [SN-38] + O=C(c1cc(Cc2n[nH]c(=O)c3ccccc23)ccc1F)N1CCN(C(=O)C2CC2)CC1 [Olaparib] (first compound max 0.3 µM, 7x7, partner max 10 µM)
Bliss excess: 0.038

Now examine the next entry.
So, C[C@@H]1COCCN1c1cc(C2([S@](C)(=N)=O)CC2)nc(-c2ccnc3[nH]ccc23)n1 [AZD6738] + C1CC(C1)(C(=O)[O-])C(=O)[O-].N.N.[Pt+2] [Carboplatin] (first compound max 10 µM, 7x7, partner max 10 µM) ? Its Bliss excess was -0.102

====

# System: PANC-04-03 (Pancreatic Carcinoma)
# PROCEDURE DETAILS: combination Emax (second highest fraction inhibited in the dose matrix, 72 h); higher = more inhibition; extreme values may be limits of the assay
Overview of recorded combination Emax for various molecules
Give only the figure.

MOLECULE: CN(CCO)CC[C@H](CSc1ccccc1)Nc1ccc(S(=O)(=O)NC(=O)c2ccc(N3CCC([C@@H](O)c4ccccc4-c4ccc(Cl)cc4)CC3)cc2)cc1S(=O)(=O)C(F)(F)F [AZD4320] + CN(C)CCCOc1ccc(-c2ccc3ncc4c(c3c2)n(C2CCOCC2)c(=O)n4C)cn1 [AZD0156] (first compound max 1 µM, 7x7, partner max 1 µM)
SYSTEM: PANC-04-03 (Pancreatic Carcinoma)
combination Emax: 0.192

So, Cc1c2c(nn1C)CSCc1cc(n(C)n1)CSc1cc(c3ccccc3c1)OCCCc1c(C(=O)O)n(C)c3c-2c(Cl)ccc13 [AZD5991] + CN(C)CCCOc1ccc(-c2ccc3ncc4c(c3c2)n(C2CCOCC2)c(=O)n4C)cn1 [AZD0156] (first compound max 1 µM, 7x7, partner max 1 µM) ? Its combination Emax was 0.24

So, CC1(C)CCC(CN2CCN(c3ccc(C(=O)NS(=O)(=O)c4ccc(NCC5CCOCC5)c([N+](=O)[O-])c4)c(Oc4cnc5[nH]ccc5c4)c3)CC2)=C(c2ccc(Cl)cc2)C1 [Venetoclax] + CS(=O)(=O)CCNCc1ccc(-c2ccc3ncnc(Nc4ccc(OCc5cccc(F)c5)c(Cl)c4)c3c2)o1 [Lapatinib] (first compound max 1 µM, 7x7, partner max 10 µM) ? Its combination Emax was 0.291

====

# System: RF-48 (B-Cell Non-Hodgkin's Lymphoma)
# PROCEDURE DETAILS: Bliss excess, mean over the matrix (fraction); higher = more synergy
// rule not met strictly below -0.009 in Bliss excess; rule met otherwise

Worked cases, answers included:
COMPOUND: C[C@@H](Oc1cc(-c2cnn(C3CCNCC3)c2)cnc1N)c1c(Cl)ccc(F)c1Cl [Crizotinib] + Cn1cnc2c(F)c(Nc3ccc(Br)cc3Cl)c(C(=O)NOCCO)cc21 [Selumetinib] (first compound max 10 µM, 7x7, partner max 10 µM)
CLASS LABEL: rule not met
//
COMPOUND: Cc1cc2ncnn2cc1Nc1ncc2c(n1)n(C1CCOCC1)c(=O)n2C [AZD7648] + CCN(CCO)CCCOc1ccc2c(Nc3cc(CC(=O)Nc4cccc(F)c4)[nH]n3)ncnc2c1 [AZD2811] (first compound max 10 µM, 7x7, partner max 1 µM)
CLASS LABEL: rule met
//
COMPOUND: CN(CCO)CC[C@H](CSc1ccccc1)Nc1ccc(S(=O)(=O)NC(=O)c2ccc(N3CCC([C@@H](O)c4ccccc4-c4ccc(Cl)cc4)CC3)cc2)cc1S(=O)(=O)C(F)(F)F [AZD4320] + CN(C)CCCOc1ccc(-c2ccc3ncc4c(c3c2)n(C2CCOCC2)c(=O)n4C)cn1 [AZD0156] (first compound max 1 µM, 7x7, partner max 1 µM)
CLASS LABEL: rule not met
//
COMPOUND: Cc1c2c(nn1C)CSCc1cc(n(C)n1)CSc1cc(c3ccccc3c1)OCCCc1c(C(=O)O)n(C)c3c-2c(Cl)ccc13 [AZD5991] + C=CCn1c(=O)c2cnc(Nc3ccc(N4CCN(C)CC4)cc3)nc2n1-c1cccc(C(C)(C)O)n1 [AZD1775] (first compound max 1 µM, partner max 1 µM)
CLASS LABEL: rule met
//
COMPOUND: CN(CCO)CC[C@H](CSc1ccccc1)Nc1ccc(S(=O)(=O)NC(=O)c2ccc(N3CCC([C@@H](O)c4ccccc4-c4ccc(Cl)cc4)CC3)cc2)cc1S(=O)(=O)C(F)(F)F [AZD4320] + C=CCn1c(=O)c2cnc(Nc3ccc(N4CCN(C)CC4)cc3)nc2n1-c1cccc(C(C)(C)O)n1 [AZD1775] (first compound max 1 µM, partner max 1 µM)
CLASS LABEL: rule met
//
COMPOUND: CN(C)CCCOc1ccc(-c2ccc3ncc4c(c3c2)n(C2CCOCC2)c(=O)n4C)cn1 [AZD0156] + C=CCn1c(=O)c2cnc(Nc3ccc(N4CCN(C)CC4)cc3)nc2n1-c1cccc(C(C)(C)O)n1 [AZD1775] (first compound max 1 µM, partner max 1 µM)
CLASS LABEL: rule not met

Please examine the following record next.
[in] Does CCN(CCO)CCCOc1ccc2c(Nc3cc(CC(=O)Nc4cccc(F)c4)[nH]n3)ncnc2c1 [AZD2811] + C=CCn1c(=O)c2cnc(Nc3ccc(N4CCN(C)CC4)cc3)nc2n1-c1cccc(C(C)(C)O)n1 [AZD1775] (first compound max 1 µM, partner max 1 µM) have a reported Bliss excess of at least -0.009?
[out] rule met
